biological target: equine FcRn (large alpha subunit p51) / equine beta-2-microglobulin complex, biotinylated (equine) (UniProt P30441); test: SPR (Biacore), pH 6
property.label: pKd
Numbers only, as −log10 of the molar value.

input: Fill blank: measured pKd of the binder equine IgG1 Q311S (antibody, part only; not given: variable domains, not shown: another chain or arm of the molecule) constant: ASTTAPKVFALAPGCGTTSDSTVALGCLVSGYFPEPVKVSWNSGSLTSGVHTFPSVLQSSGFYSLSSMVTVPASTWTSETYICNVVHAASNFKVDKRIEPIPDNHQKVCDMSKCPKCPAPELLGGPSVFIFPPNPKDTLMITRTPEVTCVVVDVSQENPDVKFNWYMDGVEVRTATTRPKEEQFNSTYRVVSVLRIQHSDWLSGKEFKCKVNNQALPQPIERTITKTKGRSQEPQVYVLAPHPDELSKSKVSVTCLVKDFYPPEINIEWQSNGQPELETKYSTTQAQQDSDGSYFLYSKLSVDRNRWQQGTTFTCGVMHEALHNHYTQKNVSKNPGK is ____.
output: 7.61
